Tryptase at 100 μM % reference
# Test system: Tryptase, from human lung
# measurement.description: Enzymatic assay, tryptase
# measurement.conditions: at 100 μM
Where a SMILES comes first, the peptide text is derived from it.
Number in %, nothing else.

molecule: CCCC[C@@H]1NC(=O)[C@@H]2CCCN2C(=O)[C@H]2CCCN2C(=O)[C@H](CO)NC(=O)[C@@H]2CSSC[C@H](NC1=O)C(=O)N[C@@H]([C@@H](C)O)C(=O)N[C@@H](C)C(=O)N[C@@H](CO)C(=O)N[C@@H]([C@@H](C)CC)C(=O)N1CCC[C@H]1C(=O)N1CCC[C@H]1C(=O)N[C@@H](CCC(N)=O)C(=O)N2 [Ex. 93] (HELM PEPTIDE1{[Nle].C.T.A.S.I.P.P.Q.C.S.[dP].P}$PEPTIDE1,PEPTIDE1,2:R3-10:R3|PEPTIDE1,PEPTIDE1,1:R1-13:R2$$$V2.0)
numeric.value: 5.6

Consider the additional molecule presented here.
Requested field: Tryptase at 100 μM %. Item: CC[C@H](C)[C@@H]1NC(=O)[C@@H]2CCCN2C(=O)[C@@H]2CCCN2C(=O)[C@H](CC(=O)O)NC(=O)[C@H](CO)NC(=O)[C@H](CCCCN)NC(=O)[C@H]([C@@H](C)O)NC(=O)[C@@H]2CSSC[C@H](NC1=O)C(=O)N[C@@H]([C@@H](C)O)C(=O)N1CCC[C@@H]1C(=O)N1CCC[C@H]1C(=O)N[C@@H](C1CCCCC1)C(=O)N2 [Ex. 38] (HELM PEPTIDE1{[O=C([C@@H](N[*:1])C1CCCCC1)[*:2]].C.T.K.S.D.P.P.I.C.T.[dP].P}$PEPTIDE1,PEPTIDE1,2:R3-10:R3|PEPTIDE1,PEPTIDE1,1:R1-13:R2$$$V2.0)
11

---

# target.or.test.system: Thrombin, from Human Plasma (Homo sapiens)
# measurement.description: Enzymatic assay, thrombin
Where a SMILES comes first, the peptide text is derived from it.
value.kind: Thrombin at 100 μM % (%)
Number in %, nothing else.

Requested field: Thrombin at 100 μM %. Item: CC[C@H](C)[C@@H]1NC(=O)[C@@H]2CCCN2C(=O)[C@@H]2CCCN2C(=O)[C@H](CC(=O)O)NC(=O)[C@H](CO)NC(=O)[C@H](CCCCN)NC(=O)[C@H]([C@@H](C)O)NC(=O)[C@@H]2CSSC[C@H](NC1=O)C(=O)N[C@@H](CO)C(=O)N1CCC[C@@H]1C(=O)N1CCC[C@H]1C(=O)N[C@@H](Cc1ccccc1)C(=O)N2 [Ex. 4] (HELM PEPTIDE1{F.C.T.K.S.D.P.P.I.C.S.[dP].P}$PEPTIDE1,PEPTIDE1,2:R3-10:R3|PEPTIDE1,PEPTIDE1,1:R1-13:R2$$$V2.0)
0

---

pIC50 reference
# target.or.test.system: Elastase from human neutrophils (Homo sapiens, UniProt P08246)
# Sequence (P08246 30-267): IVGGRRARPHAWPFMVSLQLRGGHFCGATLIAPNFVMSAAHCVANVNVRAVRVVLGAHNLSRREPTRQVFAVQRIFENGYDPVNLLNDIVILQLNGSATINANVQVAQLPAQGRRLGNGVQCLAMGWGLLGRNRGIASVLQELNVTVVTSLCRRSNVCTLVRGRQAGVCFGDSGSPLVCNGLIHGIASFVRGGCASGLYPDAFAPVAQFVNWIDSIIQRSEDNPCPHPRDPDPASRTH
# measurement.description: Enzymatic assay, elastase
# measurement.conditions: Elastase IC50
Where a SMILES comes first, the peptide text is derived from it.
Quick note: pIC50 means taking -log10 of the concentration in moles per liter.

molecule: CCCC[C@@H]1NC(=O)[C@@H]2CCCN2C(=O)[C@H]2CCCN2C(=O)[C@H](CO)NC(=O)[C@@H]2CSSC[C@H](NC1=O)C(=O)N[C@@H]([C@@H](C)O)C(=O)N[C@@H](C)C(=O)N[C@@H](CO)C(=O)N[C@@H]([C@@H](C)CC)C(=O)N1CCC[C@H]1C(=O)N1CCC[C@H]1C(=O)N[C@@H](CCC(N)=O)C(=O)N2 [Ex. 93] (HELM PEPTIDE1{[Nle].C.T.A.S.I.P.P.Q.C.S.[dP].P}$PEPTIDE1,PEPTIDE1,2:R3-10:R3|PEPTIDE1,PEPTIDE1,1:R1-13:R2$$$V2.0)
value.kind: pIC50
numeric.value: 7.39

Write down the reported pIC50 of CCCC[C@@H]1NC(=O)[C@@H]2CCCN2C(=O)[C@@H](C(C)C)NC(=O)[C@H](Cc2ccc(O)cc2)NC(=O)[C@@H]2CSSC[C@H](NC1=O)C(=O)N[C@@H]([C@@H](C)O)C(=O)N[C@@H](C)C(=O)N[C@@H](CO)C(=O)N[C@@H]([C@@H](C)CC)C(=O)N1CCC[C@H]1C(=O)N1CCC[C@H]1C(=O)N[C@@H](CCC(N)=O)C(=O)N2 [Ex. 119] (HELM PEPTIDE1{A.S.I.P.P.Q.C.Y.[dV].P.[Nle].C.T}$PEPTIDE1,PEPTIDE1,7:R3-12:R3|PEPTIDE1,PEPTIDE1,1:R1-13:R2$$$V2.0) , test system: Elastase from human neutrophils (Homo sapiens, UniProt P08246).
7.35

Write down the reported pIC50 of C[C@@H]1NC(=O)[C@H]([C@@H](C)O)NC(=O)[C@@H]2CSSC[C@H](NC(=O)[C@H](CCC(N)=O)NC(=O)[C@@H]3CCCN3C(=O)[C@@H]3CCCN3C(=O)[C@H](CC3CCCCC3)NC(=O)[C@H](CO)NC1=O)C(=O)N[C@@H](CCC(N)=O)C(=O)N1CCC[C@@H]1C(=O)N1CCC[C@H]1C(=O)N[C@@H](CCc1ccccc1)C(=O)N2 [Ex. 158] (HELM PEPTIDE1{[O=C([C@H](CCc1ccccc1)N[*:1])[*:2]].C.T.A.S.[Cha].P.P.Q.C.Q.[dP].P}$PEPTIDE1,PEPTIDE1,2:R3-10:R3|PEPTIDE1,PEPTIDE1,1:R1-13:R2$$$V2.0) , test system: Elastase from human neutrophils (Homo sapiens, UniProt P08246).
8.15

Write down the reported pIC50 of CCCC[C@@H]1NC(=O)[C@@H]2CCCN2C(=O)[C@H]2CCCN2C(=O)[C@H](CCCC)NC(=O)[C@@H]2CSSC[C@H](NC1=O)C(=O)N[C@@H]([C@@H](C)O)C(=O)N[C@@H](C)C(=O)N[C@@H](CO)C(=O)N[C@@H]([C@@H](C)CC)C(=O)N1CCC[C@H]1C(=O)N1CCC[C@H]1C(=O)N[C@@H](CCC(N)=O)C(=O)N2 [Ex. 94] (HELM PEPTIDE1{[Nle].C.T.A.S.I.P.P.Q.C.[Nle].[dP].P}$PEPTIDE1,PEPTIDE1,2:R3-10:R3|PEPTIDE1,PEPTIDE1,1:R1-13:R2$$$V2.0) , test system: Elastase from human neutrophils (Homo sapiens, UniProt P08246).
7.30

Write down the reported pIC50 of CCCC[C@@H]1NC(=O)[C@H](Cc2ccccc2)NC(=O)[C@H]2CCCN2C(=O)[C@H](Cc2ccc(O)cc2)NC(=O)[C@@H]2CSSC[C@H](NC1=O)C(=O)N[C@@H]([C@@H](C)O)C(=O)N[C@@H](C)C(=O)N[C@@H](CO)C(=O)N[C@@H]([C@@H](C)CC)C(=O)N1CCC[C@H]1C(=O)N1CCC[C@H]1C(=O)N[C@@H](CCC(N)=O)C(=O)N2 [Ex. 122] (HELM PEPTIDE1{[Nle].C.T.A.S.I.P.P.Q.C.Y.[dP].F}$PEPTIDE1,PEPTIDE1,2:R3-10:R3|PEPTIDE1,PEPTIDE1,1:R1-13:R2$$$V2.0) , test system: Elastase from human neutrophils (Homo sapiens, UniProt P08246).
7.74

Write down the reported pIC50 of CCCC[C@@H]1NC(=O)[C@@H]2CCCN2C(=O)[C@H]2CCCN2C(=O)[C@H](Cc2ccc(O)cc2)NC(=O)[C@@H]2CSSC[C@H](NC1=O)C(=O)N[C@@H](C)C(=O)N[C@@H](C)C(=O)N[C@@H](CO)C(=O)N[C@@H]([C@@H](C)CC)C(=O)N1CCC[C@H]1C(=O)N1CCC[C@H]1C(=O)N[C@@H](CCC(N)=O)C(=O)N2 [Ex. 86] (HELM PEPTIDE1{[Nle].C.A.A.S.I.P.P.Q.C.Y.[dP].P}$PEPTIDE1,PEPTIDE1,2:R3-10:R3|PEPTIDE1,PEPTIDE1,1:R1-13:R2$$$V2.0) , test system: Elastase from human neutrophils (Homo sapiens, UniProt P08246).
7.59
